- targetSystem: EGFR wild type (EGFR WT) (Homo sapiens (Human), UniProt P00533)
- Sequence (P00533 25-1210): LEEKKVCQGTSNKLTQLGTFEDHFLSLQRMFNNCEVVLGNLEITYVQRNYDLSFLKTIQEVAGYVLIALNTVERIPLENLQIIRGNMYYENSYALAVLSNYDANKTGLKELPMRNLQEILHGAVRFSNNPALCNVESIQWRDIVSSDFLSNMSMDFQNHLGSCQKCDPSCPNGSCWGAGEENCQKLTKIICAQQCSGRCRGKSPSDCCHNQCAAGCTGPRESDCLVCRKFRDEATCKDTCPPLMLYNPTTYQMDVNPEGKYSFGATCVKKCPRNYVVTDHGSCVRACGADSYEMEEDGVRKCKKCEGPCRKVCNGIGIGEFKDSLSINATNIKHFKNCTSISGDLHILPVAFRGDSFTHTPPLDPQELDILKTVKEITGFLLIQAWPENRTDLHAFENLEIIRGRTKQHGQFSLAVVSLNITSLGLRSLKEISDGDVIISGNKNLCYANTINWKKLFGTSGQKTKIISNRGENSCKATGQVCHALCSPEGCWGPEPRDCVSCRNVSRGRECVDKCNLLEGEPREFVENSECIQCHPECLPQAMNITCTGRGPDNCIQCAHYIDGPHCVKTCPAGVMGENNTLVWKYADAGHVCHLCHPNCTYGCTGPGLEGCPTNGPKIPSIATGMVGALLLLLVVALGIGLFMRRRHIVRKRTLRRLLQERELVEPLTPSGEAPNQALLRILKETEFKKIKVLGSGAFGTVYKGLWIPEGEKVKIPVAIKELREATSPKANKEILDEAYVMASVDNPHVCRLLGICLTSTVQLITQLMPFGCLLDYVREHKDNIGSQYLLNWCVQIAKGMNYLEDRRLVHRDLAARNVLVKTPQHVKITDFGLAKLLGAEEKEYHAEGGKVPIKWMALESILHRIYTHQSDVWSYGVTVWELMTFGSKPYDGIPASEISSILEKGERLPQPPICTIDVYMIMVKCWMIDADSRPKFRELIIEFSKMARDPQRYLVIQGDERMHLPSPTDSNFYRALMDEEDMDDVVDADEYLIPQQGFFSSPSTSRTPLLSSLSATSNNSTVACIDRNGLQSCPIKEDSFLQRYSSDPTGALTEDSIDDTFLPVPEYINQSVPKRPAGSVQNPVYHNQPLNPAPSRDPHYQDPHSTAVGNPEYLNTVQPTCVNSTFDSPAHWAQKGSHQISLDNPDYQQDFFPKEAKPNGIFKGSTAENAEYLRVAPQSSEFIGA
- procedureSummary: Cellular Phosphorylation Assay, Assay 5 (EGF-stimulated EGFR phosphorylation, NIH 3T3 cells)
- Format: cell-based
- assaySetup: EGF-stimulated EGFR WT phosphorylation
valueKind: log10(IC50) (log10 of the value in µM)

{"compound": "C=CC(=O)N1CCC(Sc2nc3c(Nc4ccc(Oc5ccc6c(c5)ncn6C)c(C)c4)ncnc3cc2OC)CC1 [Example 159]", "log10(IC50)": -0.31}
{"compound": "C=CC(=O)N1CCCC(c2ccc3ncnc(Nc4ccc(Oc5ccc6c(c5)ncn6C)c(C)c4)c3n2)CC1 (centres unmarked) [Example 121]", "log10(IC50)": 0.66}
{"compound": "C=CC(=O)N1CCC(Oc2ccc3ncnc(Nc4ccc(Oc5cnn6c(C)cnc6c5)c(Cl)c4F)c3n2)CC1 [Example 53]", "log10(IC50)": 0.09}
{"compound": "C=CC(=O)N1CCC[C@@H](c2ccc3ncnc(Nc4ccc(Oc5ccc6c(c5)ncn6C)c(C)c4)c3n2)C1 (racemic) [Example 35]", "log10(IC50)": 0.44}
{"compound": "C=CC(=O)N1C[C@H]2CC[C@@H]1CN2c1ccc2ncnc(Nc3ccc(Oc4ccn5ncnc5c4)c(C)c3F)c2n1 [Example 175]", "log10(IC50)": 0.38}
{"compound": "C=CC(=O)N1CCC(Oc2ccc3ncnc(Nc4ccc(Oc5ccn6ncnc6c5)c(Cl)c4F)c3n2)CC1 [Example 13]", "log10(IC50)": -0.98}
{"compound": "C=CC(=O)N1CCN(c2nc3c(Nc4ccc(Oc5ccn6ncnc6c5)c(C)c4F)ncnc3cc2OC)CC1 [Example 152]", "log10(IC50)": -0.21}

Origin of the recorded values: patent US12447153B2
